src = paper PMC9230201

- Procedure Text: Urinary excretion of phenolic metabolites after intake of the GCPE nutraceutical
- Condition Details: week 0, interval 6–9 h
Quick reference for Amount excreted in urine, 6-9 h among some compounds
Test Readout: Amount excreted in urine, 6-9 h

INSERT INTO measurements (compound, endpoint_result) VALUES
  ('COc1cc(/C=C/C(=O)OC2[C@H](O)CC(O)(C(=O)O)C[C@H]2O)ccc1O (some centres unmarked) [4-Feruloylquinic acid]', '0.02 µmol'),
  ('O=C(O)CCc1ccc(OS(=O)(=O)O)cc1 [DHCoA-4′-sulfate, 3-(Phenyl)propanoic acid-4′-sulfate]', '3 µmol'),
  ('COc1cc(CC(=O)O)ccc1O [4′-Hydroxy-3′-methoxyphenylacetic acid]', '0.9 µmol'),
  ('COc1ccc(CCC(=O)O)cc1O [DHiFA]', '1.2 µmol'),
  ('COc1cc(C=CC(=O)O)ccc1OC1OC(C(=O)O)C(O)C(O)C1O (centres unmarked) [FA-4′-glucuronide, 3′-Methoxycinnamic acid-4′-glucuronide]', '0.7 µmol'),
  ('O=C(O)/C=C/c1ccc(O)c(O)c1 [CA, 3′,4′-Dihydroxycinnamic acid]', '0.08 µmol'),
  ('O=C(O)c1ccc(O)c(O)c1 [3,4-Dihydroxybenzoic acid]', '0.017 µmol'),
  ('COc1cc(/C=C/C(=O)O[C@@H]2C[C@@](O)(C(=O)O)C[C@@H](O)[C@@H]2O)ccc1O [3-Feruloylquinic acid]', '0.021 µmol'),
  ('COc1cc(CCC(=O)O)ccc1O[C@@H]1O[C@H](C(=O)O)[C@@H](O)[C@H](O)[C@H]1O [DHFA-4′-glucuronide]', '1 µmol'),
  ('O=C(O)CNC(=O)c1cccc(O)c1 [3′-Hydroxyhippuric acid]', '4 µmol'),
  ('O=C(O)c1ccc(O)cc1 [4-Hydroxybenzoic acid]', '0.1 µmol'),
  ('O=C(O)CCc1ccc(O)c(O[C@@H]2O[C@H](C(=O)O)[C@@H](O)[C@H](O)[C@H]2O)c1 [DHCA-3′-glucuronide]', '0.08 µmol'),
  ('COc1cc(CCC(=O)O)ccc1O [DHFA]', '0.08 µmol'),
  ('O=C(O)CCc1ccc(O)c(OS(=O)(=O)O)c1 [DHCA-3′-sulfate]', '2.5 µmol'),
  ('O=C(O)c1cccc(O)c1 [3-Hydroxybenzoic acid]', '0.08 µmol'),
  ('COc1ccc(CCC(=O)O)cc1O[C@@H]1O[C@H](C(=O)O)[C@@H](O)[C@H](O)[C@H]1O [DHiFA-3′-glucuronide]', '1.1 µmol'),
  ('COc1cc(CCC(=O)O)ccc1OS(=O)(=O)O [DHFA-4′-sulfate]', '3.4 µmol'),
  ('O=C(O)CNC(=O)c1ccc(O)cc1 [4′-Hydroxyhippuric acid]', '1 µmol'),
  ('COc1ccc(C=CC(=O)O)cc1O[C@@H]1O[C@H](C(=O)O)[C@@H](O)[C@H](O)[C@H]1O [iFA-3′-glucuronide, 4′-Methoxycinnamic acid-3′-glucuronide]', '1.1 µmol'),
  ('O=C(O)Cc1ccc(O)c(O)c1 [3′,4′-Dihydroxyphenylacetic acid]', '0.11 µmol');
